Target: Vd-RDL1 GABAr (Varroa destructor, UniProt A0A343W7T5)
Sequence (A0A343W7T5 35-585): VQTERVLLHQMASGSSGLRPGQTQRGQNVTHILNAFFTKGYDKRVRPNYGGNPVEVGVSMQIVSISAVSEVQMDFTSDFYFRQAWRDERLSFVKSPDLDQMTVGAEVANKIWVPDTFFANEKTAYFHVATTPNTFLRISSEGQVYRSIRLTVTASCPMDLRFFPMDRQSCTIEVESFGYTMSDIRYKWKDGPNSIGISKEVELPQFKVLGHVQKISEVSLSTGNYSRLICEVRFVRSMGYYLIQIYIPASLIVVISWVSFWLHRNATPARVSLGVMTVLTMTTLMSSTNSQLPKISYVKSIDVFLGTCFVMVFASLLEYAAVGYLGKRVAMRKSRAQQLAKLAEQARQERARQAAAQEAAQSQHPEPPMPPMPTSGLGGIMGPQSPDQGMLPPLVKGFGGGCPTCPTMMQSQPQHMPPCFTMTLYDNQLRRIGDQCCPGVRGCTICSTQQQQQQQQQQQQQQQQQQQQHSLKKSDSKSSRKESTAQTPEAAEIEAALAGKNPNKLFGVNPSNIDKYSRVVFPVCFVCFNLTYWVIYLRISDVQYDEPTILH
Test: Two-electrode voltage-clamp of GABA-induced currents, Vd-RDL1 expressed in Xenopus laevis oocytes
Settings: peak current, oocytes clamped at −60 mV
pEC50: −log10 of the molar value.
outcome.measure: pEC50

compound: NCCCC(=O)O [GABA, γ-aminobutyric acid]
experimental.value: 3.57
